Biological target: PABPN1 (Homo sapiens)
Sequence (Q86U42 whole entry, species assumed): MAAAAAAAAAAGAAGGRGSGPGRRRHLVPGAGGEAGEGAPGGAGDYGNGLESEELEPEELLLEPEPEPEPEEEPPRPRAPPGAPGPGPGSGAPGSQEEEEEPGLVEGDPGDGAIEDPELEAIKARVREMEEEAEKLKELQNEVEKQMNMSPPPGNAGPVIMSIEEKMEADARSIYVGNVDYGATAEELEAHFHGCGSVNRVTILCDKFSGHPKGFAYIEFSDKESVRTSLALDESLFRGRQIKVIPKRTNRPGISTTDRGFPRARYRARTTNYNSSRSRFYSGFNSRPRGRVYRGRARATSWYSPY
MEASURE NAME: pIC50
// returns pIC50 (minus log10 of molar concentration), number only

Ask | So what's the measured pIC50 for this one? CN1C2CCCC1CC(NC(=O)c1nn(C)c3ccccc13)C2 (stereo not drawn)
Reply | 5.06

Ask | Further, for CC(C)(C)NC(=O)[C@@H]1CN(Cc2cccnc2)CCN1C[C@@H](O)C[C@@H](Cc1ccccc1)C(=O)N[C@H]1c2ccccc2C[C@H]1O ?
Reply | 4.45

Ask | Further, for CC(C)/N=c1\cc2n(-c3ccc(Cl)cc3)c3ccccc3nc-2cc1Nc1ccc(Cl)cc1 ?
Reply | 4.64

====

Assay: Cell viability assay
Details: human, HEK293 cells
MEASURE NAME: viability at 72 h, 40 µM
# output: numeric value plus its unit

Ask | So what's the measured viability at 72 h, 40 µM for this one? CC(C)(C)NC(=O)[C@@H]1C[C@@H]2CCCC[C@@H]2CN1C[C@@H](O)[C@H](Cc1ccccc1)NC(=O)[C@H](CC(N)=O)NC(=O)c1ccc2ccccc2n1
Reply | 65%
